# System: Saccharomyces cerevisiae
# Procedure text: protein stability index of tFT-peptide fusion (C-terminal peptide) (PSI (0-1 scale)); higher = more stable (slower turnover)
# Particulars: genetic background: wild type; temperature: 30 C
Metric: protein stability index
Write the value as a bare number.

## Task Could you share what protein stability index was measured for PLSPLALLPLRF , tested on Saccharomyces cerevisiae?
## Result 0.694

## Task Could you share what protein stability index was measured for RLAPASAFPHSP , tested on Saccharomyces cerevisiae?
## Result 0.687

## Task Could you share what protein stability index was measured for PPDSPSPLPPPP , tested on Saccharomyces cerevisiae?
## Result 0.681

## Task Could you share what protein stability index was measured for HIGDLRDSCFIS , tested on Saccharomyces cerevisiae?
## Result 0.693

## Task Could you share what protein stability index was measured for PSRLAPPSPSIP , tested on Saccharomyces cerevisiae?
## Result 0.694

## Task Could you share what protein stability index was measured for DGAVCSAFASIF , tested on Saccharomyces cerevisiae?
## Result 0.701

## Task Could you share what protein stability index was measured for FVVAERSDRNLV , tested on Saccharomyces cerevisiae?
## Result 0.688

## Task Could you share what protein stability index was measured for EPRWPCNVAGIV , tested on Saccharomyces cerevisiae?
## Result 0.706

## Task Could you share what protein stability index was measured for SPPPPPAPHPCP , tested on Saccharomyces cerevisiae?
## Result 0.686

## Task Could you share what protein stability index was measured for ESQSLLLFQEPS , tested on Saccharomyces cerevisiae?
## Result 0.696

----------
# Tested on: Saccharomyces cerevisiae
# Procedure text: protein stability index of tFT-peptide fusion (C-terminal peptide) (PSI (0-1 scale)); higher = more stable (slower turnover)
# Particulars: genetic background: wild type; temperature: 30 C
protein stability index values by entry
Write the value as a bare number.

{"Biosequence": "RLGGLLCSPLVD", "protein stability index": 0.705}
{"Biosequence": "GGGWGGGGGVWG", "protein stability index": 0.686}
{"Biosequence": "GGVNRPRKSTAT", "protein stability index": 0.698}
{"Biosequence": "HAAWQHPNTTQV", "protein stability index": 0.714}
{"Biosequence": "TPSRLPPPLRSP", "protein stability index": 0.703}

## Task Fill in the blank: the reported protein stability index of GRPGPSSPFLLP is ____.
## Result 0.702

## Task Fill in the blank: the reported protein stability index of PNRSPPLPRPLM is ____.
## Result 0.693

## Task Fill in the blank: the reported protein stability index of VGGCRLTRSSVW is ____.
## Result 0.688

## Task Fill in the blank: the reported protein stability index of VYFLRLERVPSF is ____.
## Result 0.696

## Task Fill in the blank: the reported protein stability index of QKREEPQNKSQD is ____.
## Result 0.72

----------
protein stability index values by entry
# Test system: Saccharomyces cerevisiae
# Procedure text: protein stability index of tFT-peptide fusion (C-terminal peptide) (PSI (0-1 scale)); higher = more stable (slower turnover)
# Particulars: genetic background: wild type; temperature: 30 C

{"Biosequence": "MERAGTADGGGA", "Metric": "protein stability index", "Readout value": 0.662}
{"Biosequence": "VSLISCGGVYAG", "Metric": "protein stability index", "Readout value": 0.688}
{"Biosequence": "PPVPPPDLCSAL", "Metric": "protein stability index", "Readout value": 0.653}
{"Biosequence": "LRLSASRLLPPP", "Metric": "protein stability index", "Readout value": 0.736}
{"Biosequence": "TVATTIRVTKVV", "Metric": "protein stability index", "Readout value": 0.582}
{"Biosequence": "GFLCGFVGVFAD", "Metric": "protein stability index", "Readout value": 0.57}
{"Biosequence": "PSPPPPSRLLPP", "Metric": "protein stability index", "Readout value": 0.689}
{"Biosequence": "KYKKNNNKKQNQ", "Metric": "protein stability index", "Readout value": 0.704}
{"Biosequence": "YVFSPWSCWASV", "Metric": "protein stability index", "Readout value": 0.423}
{"Biosequence": "QSKFNKFPIVET", "Metric": "protein stability index", "Readout value": 0.656}

## Task Could you share what protein stability index was measured for TRSDILGAERWG , tested on Saccharomyces cerevisiae?
## Result 0.679

## Task Could you share what protein stability index was measured for RSTQRWAVAWSG , tested on Saccharomyces cerevisiae?
## Result 0.678

## Task Could you share what protein stability index was measured for LPPSSFPTPSPP , tested on Saccharomyces cerevisiae?
## Result 0.723

## Task Could you share what protein stability index was measured for SSLPRPSHSLSL , tested on Saccharomyces cerevisiae?
## Result 0.617

## Task Could you share what protein stability index was measured for GTQSGGGGGKGG , tested on Saccharomyces cerevisiae?;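 note: PSI is a weighted mean of sequencing reads over stability bins, variants kept only with over 10 reads, mCherry proximal and sfGFP distal, peptide attached via GGGS linker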
## Result 0.683
